target: p38α (Homo sapiens); construct: p38 MAP Kinases are recombinant human full-length proteins with an amino-terminal GST fusion; GST (N); purchased Upstate Biotechnology Inc; host or cells: E. coli; assay: p38 MAP Kinase assay: inhibition of ATF2 phosphorylation, ELISA; assay type: biochemical; conditions: 10 uM; substrate ATF2; read-out: [ENZ] P38 ALPHA, PCT INH, ELISA (10 uM;ATF2) (Percent)
Sequence (Q16539 whole entry, the tested form may be a part): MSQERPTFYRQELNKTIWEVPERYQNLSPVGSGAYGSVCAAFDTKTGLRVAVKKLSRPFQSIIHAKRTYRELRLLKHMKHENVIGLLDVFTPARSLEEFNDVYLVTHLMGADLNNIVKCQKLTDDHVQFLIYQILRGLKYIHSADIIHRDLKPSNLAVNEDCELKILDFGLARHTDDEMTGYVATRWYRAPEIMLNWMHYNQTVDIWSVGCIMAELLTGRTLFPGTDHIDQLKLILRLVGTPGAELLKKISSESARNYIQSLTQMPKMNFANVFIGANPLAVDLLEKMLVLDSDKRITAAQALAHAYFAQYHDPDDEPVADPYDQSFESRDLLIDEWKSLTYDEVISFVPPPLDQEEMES
Hi, to clarify the labels: 1 covers inhibition at 10 µM from 50% upward, -1 covers anything below 50%.

The examples below pair each entry with its known result.
O=C(Nc1ccc(OCCN2CCOCC2)c2ccccc12)c1ccnc(N2CCc3ccccc3C2)c1 [Compound B121]
-1
O=C(Nc1ccc(OCCN2CCOCC2)c2ccccc12)c1cccc(-c2ccccc2Cl)c1 [Compound B101]
1
O=C(Nc1ccc(OCCN2CCOCC2)c2ccccc12)c1ccnc(N2CCCCC2)c1 [Compound B127]
1

Does inhibition at 10 µM meet or surpass 50% for O=C(Nc1ccc(OCCN2CCOCC2)c2ccccc12)c1cccc(NCc2ccc(F)cc2)c1 [Compound B170] ?
-1

How about this compound: Cc1ccc(-c2cccc(C(=O)Nc3ccc(OCCN4CCOCC4)c4ccccc34)c2)c2ccccc12 [Compound B114]
-1

How about this compound: CCOC(=O)N1CCN(CCOc2ccc(NC(=O)c3cccc(N4CCOCC4)c3)c3ccccc23)CC1 [Compound B15]
-1

How about this compound: CCC(C)N(C)c1cccc(C(=O)Nc2ccc(OCCN3CCOCC3)c3ccccc23)n1 (centres unmarked) [Compound B149]
-1

How about this compound: CN1CCN(CCOc2ccc(NC(=O)c3ccc(-n4ccc(C(F)(F)F)n4)cc3)c3ccccc23)CC1 [Compound B9]
-1

Data credit: patent US7829560B2
